Test system: L1210
Assay: Inhibition of ENT-mediated [3H]thymidine incorporation in mouse L1210 cells at 1 uM by liquid scintillation counting
Type: cell-based
Settings: in the assay text read “transport” for “incorporation”
Activity calls are given as the source filed them. The calls are words filed in the database; no cut-off is given here.
value-kind: inhibition

Before answering, review these 5 worked examples.
>  <compound>
COc1ccc(CNc2nc(NCC(C)OC(=O)Nc3ccc(C(F)(F)F)cc3)nc3c(NCc4ccc(OC)c(OC)c4)nc(NCC(C)OC(=O)Nc4ccc(C(F)(F)F)cc4)nc23)cc1OC (stereo not drawn)

>  <system-under-test>
L1210

>  <inhibition>
inactive

$$$$
>  <compound>
COc1ccc(CNc2nc(NCC(C)O)nc3c(NCc4ccc(OC)c(OC)c4)nc(NCC(C)O)nc23)cc1OC (stereo not drawn)

>  <system-under-test>
L1210

>  <inhibition>
> 90%

$$$$
>  <compound>
CCOC(=O)CNC(=O)OC(C)CNc1nc(NCc2ccc(OC)c(OC)c2)c2nc(NCC(C)OC(=O)NCC(=O)OCC)nc(NCc3ccc(OC)c(OC)c3)c2n1 (stereo not drawn)

>  <system-under-test>
L1210

>  <inhibition>
> 90%

$$$$
>  <compound>
COc1ccc(CNc2nc(NCC(C)OC(=O)Nc3ccc([N+](=O)[O-])cc3)nc3c(NCc4ccc(OC)c(OC)c4)nc(NCC(C)OC(=O)Nc4ccc([N+](=O)[O-])cc4)nc23)cc1OC (stereo not drawn)

>  <system-under-test>
L1210

>  <inhibition>
inactive

$$$$
>  <compound>
COc1ccc(CNc2nc(NCC(C)OC(=O)Nc3ccccc3)nc3c(NCc4ccc(OC)c(OC)c4)nc(NCC(C)O)nc23)cc1OC (stereo not drawn)

>  <system-under-test>
L1210

>  <inhibition>
Active

$$$$

Q. Please look up its inhibition: COc1ccc(CNc2nc(NCC(C)OC(=O)Nc3ccc([N+](=O)[O-])cc3)nc3c(NCc4ccc(OC)c(OC)c4)nc(NCC(C)O)nc23)cc1OC (stereo not drawn)
A. Active

Q. Now give it for COc1ccc(CNc2nc(NCC(C)OC(=O)Nc3ccc(C(F)(F)F)cc3)nc3c(NCc4ccc(OC)c(OC)c4)nc(NCC(C)O)nc23)cc1OC (stereo not drawn) too.
A. Active

Q. CCOC(=O)CNC(=O)OC(C)CNc1nc(NCc2ccc(OC)c(OC)c2)c2nc(NCC(C)O)nc(NCc3ccc(OC)c(OC)c3)c2n1 (stereo not drawn) ?
A. > 90%

====

Test system: COR-L23
Test: Inhibition of ENT-mediated [3H]thymidine incorporation in human COR-L23 cells at 1 uM by liquid scintillation counting
Assay type: cell-based
value-kind: inhibition (%)
Unit % implied. Number only.

Q. Bench note: what inhibition did "COc1ccc(CNc2nc(NC[C@H](C)O)nc3c(NCc4ccc(OC)c(OC)c4)nc(NC[C@H](C)O)nc23)cc1OC" show?
A. 93

Q. Subsequent entry: COc1ccc(CNc2nc(NCC(C)OC(=O)[C@@H](N)C(C)C)nc3c(NCc4ccc(OC)c(OC)c4)nc(NCC(C)OC(=O)Nc4ccccc4)nc23)cc1OC (some centres undefined)
A. 92

Q. // query: COc1ccc(CNc2nc(NCC(C)OC(=O)Nc3ccccc3)nc3c(NCc4ccc(OC)c(OC)c4)nc(NCC(C)O)nc23)cc1OC (centres undefined)
A. 97

Q. Now give it for COc1ccc(CNc2nc(NCC(C)OC(=O)Nc3ccc(C(F)(F)F)cc3)nc3c(NCc4ccc(OC)c(OC)c4)nc(NCC(C)O)nc23)cc1OC (centres undefined) too.
A. 93
